molecular target: NET (Rattus norvegicus, UniProt Q63380); assay: Functional uptake profile, rat NET; format: cell-based
Sequence (Q63380 1-617): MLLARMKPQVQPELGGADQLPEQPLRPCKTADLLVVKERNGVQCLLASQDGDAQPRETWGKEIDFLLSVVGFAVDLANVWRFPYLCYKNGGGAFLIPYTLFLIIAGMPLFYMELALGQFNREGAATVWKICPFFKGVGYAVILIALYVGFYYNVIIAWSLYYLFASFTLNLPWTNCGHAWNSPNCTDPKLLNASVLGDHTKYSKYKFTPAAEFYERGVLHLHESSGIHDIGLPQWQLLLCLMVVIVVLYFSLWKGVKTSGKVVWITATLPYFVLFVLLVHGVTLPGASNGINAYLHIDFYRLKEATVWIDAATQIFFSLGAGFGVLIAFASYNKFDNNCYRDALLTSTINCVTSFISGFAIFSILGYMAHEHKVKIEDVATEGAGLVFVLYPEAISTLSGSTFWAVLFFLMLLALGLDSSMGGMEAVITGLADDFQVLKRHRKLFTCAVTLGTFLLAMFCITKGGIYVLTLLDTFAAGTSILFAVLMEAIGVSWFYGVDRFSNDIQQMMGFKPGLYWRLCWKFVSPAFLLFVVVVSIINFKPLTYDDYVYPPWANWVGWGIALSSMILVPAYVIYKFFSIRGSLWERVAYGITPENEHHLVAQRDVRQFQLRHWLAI
PROPERTY_NAME: EC50 (nM)
Note: unit nM is implicit; provide only the numeric part.

CC1CCC(COc2ccc(C(F)(F)F)cc2)CN1CC1(c2ccc(Cl)cc2)CCC1 (centres unmarked); 300

Entry CC1CCN(CC2(c3ccc(Cl)cc3)CCC2)CC1COc1ccc(C(F)(F)F)cc1 (centres unmarked) ; EC50 = 1000

----------
molecular target: DAT (Homo sapiens, UniProt Q01959); construct: expressed in transfected cells; assay type: cell-based; conditions: functional uptake
Sequence (Q01959 whole entry): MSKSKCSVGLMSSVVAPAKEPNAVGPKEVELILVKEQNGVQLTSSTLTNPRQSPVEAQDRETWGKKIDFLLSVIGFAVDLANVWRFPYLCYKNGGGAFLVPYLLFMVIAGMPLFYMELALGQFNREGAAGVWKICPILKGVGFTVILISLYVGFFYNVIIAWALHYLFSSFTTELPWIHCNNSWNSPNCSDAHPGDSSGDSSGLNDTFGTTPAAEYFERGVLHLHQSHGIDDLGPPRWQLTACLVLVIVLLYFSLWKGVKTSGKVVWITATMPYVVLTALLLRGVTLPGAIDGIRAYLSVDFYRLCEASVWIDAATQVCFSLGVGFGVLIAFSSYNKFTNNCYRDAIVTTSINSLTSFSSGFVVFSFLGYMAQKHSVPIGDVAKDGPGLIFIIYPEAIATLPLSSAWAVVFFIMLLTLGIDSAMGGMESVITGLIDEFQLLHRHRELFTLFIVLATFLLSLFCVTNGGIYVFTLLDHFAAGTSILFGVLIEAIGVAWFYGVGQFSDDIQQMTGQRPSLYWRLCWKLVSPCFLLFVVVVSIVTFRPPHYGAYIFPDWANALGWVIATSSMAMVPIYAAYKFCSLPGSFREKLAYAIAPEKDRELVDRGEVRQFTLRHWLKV
PROPERTY_NAME: EC50 (nM)
Note: unit nM is implicit; provide only the numeric part.

CC(C)C[C@@H](N)C1(c2ccc(Cl)cc2)CCC1 [R-DDMS]; 100

Now consider the entry below.
Entry CN[C@H](CC(C)C)C1(c2ccc(Cl)cc2)CCC1 [R-DMS] ; EC50 = 30

----------
Measured EC50 of individual entries
Biological target: NET (Homo sapiens)
Construct: expressed in transfected cells; host or cells: MDCK
Sequence (P23975 whole entry): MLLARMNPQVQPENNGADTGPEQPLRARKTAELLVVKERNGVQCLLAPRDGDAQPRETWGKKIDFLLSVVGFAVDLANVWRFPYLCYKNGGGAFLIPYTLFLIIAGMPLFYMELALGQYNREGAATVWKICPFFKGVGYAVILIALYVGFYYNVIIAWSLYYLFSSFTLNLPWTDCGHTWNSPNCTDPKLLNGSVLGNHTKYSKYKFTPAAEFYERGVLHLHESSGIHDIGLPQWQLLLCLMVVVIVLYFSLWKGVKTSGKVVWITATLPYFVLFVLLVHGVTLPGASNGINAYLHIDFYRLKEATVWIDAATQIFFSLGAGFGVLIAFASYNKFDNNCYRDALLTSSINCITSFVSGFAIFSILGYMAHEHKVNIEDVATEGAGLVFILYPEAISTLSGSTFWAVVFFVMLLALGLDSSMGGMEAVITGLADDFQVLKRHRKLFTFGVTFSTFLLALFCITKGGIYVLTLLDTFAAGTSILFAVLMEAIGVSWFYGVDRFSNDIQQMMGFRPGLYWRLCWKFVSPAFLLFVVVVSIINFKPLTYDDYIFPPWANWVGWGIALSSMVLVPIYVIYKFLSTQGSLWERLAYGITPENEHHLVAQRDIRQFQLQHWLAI
Assay: Functional norephinephrine uptake inhibition, MDCK cell line
Type: cell-based
Method: Functional activity of the compounds was determined in vitro in cellular assays using recombinant human cell lines.
Note: unit nM is implicit; provide only the numeric part.

CN[C@H](CC(C)C)C1(c2ccc(Cl)cc2)CCC1; 300

Now consider the entry below.
Entry CC(C)C[C@@H](N)C1(c2ccc(Cl)cc2)CCC1 ; EC50 = 200
